Source listed as patent US12097215B2.

Here the recorded MIC is given for each entry.
Tested on: S. aureus ATCC 25923
test_name: MIC by serial dilutions in broth (visible growth);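 further: broth tubes inoculated at about 5×10^5 CFU/ml, incubated 16-24 h at 35 °C in air, growth judged by transmitted light against an unexposed refrigerated inoculum tube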
Format: cell-based
run_parameters: concentration of ^64Zne; Tables 1-5
metric_name: MIC (µg/mL)

molecule="O=S(=O)([O-])[O-].[64Zn+2] [^64Zne sulfate]" test_value=0.366
molecule="NC(CCC(=O)[O-])C(=O)[O-].[64Zn+2] (stereo not shown) [^64Zne glutamate]" test_value=0.0458
molecule="O=C([O-])CC(O)(CC(=O)[O-])C(=O)[O-].O=C([O-])CC(O)(CC(=O)[O-])C(=O)[O-].[Zn+2].[Zn+2].[Zn+2] [^64Zne citrate]" test_value=0.0275
molecule="O=C([O-])CC(NCCNC(CC(=O)O)C(=O)O)C(=O)[O-].[64Zn+2] (stereo not shown)" test_value=0.366
